Measured values drawn from BindingDB's records for doi:10.1124/jpet.104.073668 for this set.

molecular target: Mu-type opioid receptor (Rattus norvegicus)
Sequence (P33535 whole entry): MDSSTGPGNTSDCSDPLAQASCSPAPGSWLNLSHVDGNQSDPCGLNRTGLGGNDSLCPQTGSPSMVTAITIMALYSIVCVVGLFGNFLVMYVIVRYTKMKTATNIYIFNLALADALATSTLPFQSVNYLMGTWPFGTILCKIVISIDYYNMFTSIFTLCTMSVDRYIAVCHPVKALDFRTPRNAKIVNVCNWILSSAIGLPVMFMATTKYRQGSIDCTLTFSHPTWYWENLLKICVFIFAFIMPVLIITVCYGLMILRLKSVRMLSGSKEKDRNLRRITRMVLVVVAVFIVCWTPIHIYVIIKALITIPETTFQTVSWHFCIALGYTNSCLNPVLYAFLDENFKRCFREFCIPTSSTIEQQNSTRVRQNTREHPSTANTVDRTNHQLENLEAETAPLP
measured_endpoint: pKi
// pKi here means minus log10 of the molar concentration (mol/L)

## Input State, for Mu-type opioid receptor (Rattus norvegicus), measured pKi of the compound listed here: CN(C(=O)C=Cc1ccoc1)C1CCC2(O)C3Cc4ccc(O)c5c4C2(CCN3CC2CC2)C1O5 (stereo unspecified)
## Output 8.28

* * *

molecular target: Kappa-type opioid receptor (Homo sapiens, UniProt P41145)
Sequence (P41145 whole entry): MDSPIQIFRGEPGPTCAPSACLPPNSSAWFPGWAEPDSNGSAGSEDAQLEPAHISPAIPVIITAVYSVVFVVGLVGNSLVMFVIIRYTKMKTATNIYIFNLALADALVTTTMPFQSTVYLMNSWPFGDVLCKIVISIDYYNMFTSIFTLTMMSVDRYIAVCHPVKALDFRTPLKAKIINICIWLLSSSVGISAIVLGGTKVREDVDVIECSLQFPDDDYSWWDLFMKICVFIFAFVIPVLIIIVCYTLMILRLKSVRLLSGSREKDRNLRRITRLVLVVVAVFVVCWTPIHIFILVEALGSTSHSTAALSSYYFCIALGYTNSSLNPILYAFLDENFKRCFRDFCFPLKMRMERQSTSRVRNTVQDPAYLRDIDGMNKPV
measured_endpoint: Ki (µM)
Reply numerically in µM, unit not repeated.

## Input Return reported Ki for target or system Kappa-type opioid receptor (Homo sapiens, UniProt P41145), item COC(=O)C12CN(C)CC(C(=O)OC)(C1=O)C(c1cccc(F)c1)N(C)C2c1cccc(F)c1 (stereo unspecified) .
## Output 0.248
